# Test System: GRK6, recombinant full-length GST-tagged human protein (Homo sapiens, UniProt P43250)
# Construct: Enzyme: 20 nM GRK6, recombinant full-length GST-tagged human protein; GST
# Sequence (P43250 whole entry): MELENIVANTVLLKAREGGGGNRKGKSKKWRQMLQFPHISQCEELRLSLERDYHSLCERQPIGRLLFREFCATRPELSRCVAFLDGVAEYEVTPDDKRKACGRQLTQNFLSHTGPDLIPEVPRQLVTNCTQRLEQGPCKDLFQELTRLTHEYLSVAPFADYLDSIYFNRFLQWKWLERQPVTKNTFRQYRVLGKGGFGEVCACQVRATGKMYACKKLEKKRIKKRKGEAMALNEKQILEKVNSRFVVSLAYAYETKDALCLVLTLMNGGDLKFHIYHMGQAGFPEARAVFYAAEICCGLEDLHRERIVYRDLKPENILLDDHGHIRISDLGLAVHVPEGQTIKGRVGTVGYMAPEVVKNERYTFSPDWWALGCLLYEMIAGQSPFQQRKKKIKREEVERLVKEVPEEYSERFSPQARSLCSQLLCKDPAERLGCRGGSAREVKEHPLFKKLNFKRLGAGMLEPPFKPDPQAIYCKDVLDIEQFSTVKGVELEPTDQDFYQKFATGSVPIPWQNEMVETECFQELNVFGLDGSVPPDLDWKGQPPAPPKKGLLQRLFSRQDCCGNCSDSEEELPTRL
# Assay Notes: GRK6 assay, IC50 determination (8-point concentration-response)
# Assay type: biochemical
# Run Parameters: Series 1 (Table 11); 20 nM GRK6, ATP 12 μM (Km), Peptide 216 1 μM, incubation 7 h
Result Type: IC50 (nM)

Test Smiles | Result Type | Unit Spec | Quantitative Result
N#Cc1ccc(COc2cccc(-c3ccc(-c4nnc(SCC(=O)O)[nH]4)o3)c2)cc1 | IC50 | nM | 167
O=C(O)CSc1nnc(-c2ccc(-c3ccc4[nH]c(-c5ccccc5)cc4c3)o2)[nH]1 | IC50 | nM | 133
Nc1cccc(-c2ccc(-c3nnc(SCC(=O)O)[nH]3)o2)c1 | IC50 | nM | 1410
O=C(O)CSc1nnc(-c2ccc(-c3cnc4ccccc4c3)o2)[nH]1 | IC50 | nM | 234
CC(C)Oc1cccc(-c2ccc(-c3nnc(SCC(=O)O)[nH]3)o2)c1 | IC50 | nM | 737

A. CCOc1cccc(-c2ccc(-c3nnc(SCC(=O)O)[nH]3)o2)c1
B. O=C(O)CSc1nnc(-c2ccc(-c3cc(Cl)ccc3F)o2)[nH]1
-- ask Hello, I am sorting some records. Could you say if A or B has the smaller IC50 value? Response format: the label of the selected entry.
-- reply B
